Target: UniProt Q9XUB2
Assay: MEX-5 RNA-binding inhibition confirmation – biochemical, C. elegans, fluorescence polarization, dose retest (AID 449745);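 also: potency is for blocking Mex-5 binding to labeled TCR2 RNA like unlabeled competitor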
Details: Mex-5 / TCR-2 RNA binding
Results filed as inconclusive are left out. Calls of active or inactive are those of the source. No rule for the calls is given here.
# valid calls are Yes (active), No (inactive); nothing else

Record excerpt, results attached:
CCn1c(C)c(C(C)=O)c(N2CCN(c3ccccc3)CC2)nc1=S | No
Cc1nc2c3ccccc3nc(NNC(=O)CCC(=O)NC(C)C)n2n1 | Yes
CCOc1ccc(-c2c(C#N)c(N)nc3sc(C(=O)c4ccccc4)c(N)c23)cc1 | Yes
CCOC(=O)c1c(-c2ccccc2)oc2ccc(OCC(=O)NNC(=O)CCC(=O)O)cc12 | Yes
COc1ccc(N/C=C/C(=O)c2ccc3c(c2)OCO3)cc1OC | No

query: Check the results log: what was the call for Cc1ccc(O)c(N=CC2=C(O)c3ccccc3C2=O)c1 ?
result: Yes

query: Could you kindly confirm the outcome this assay logged for O=C1CS/C(=N\NC(=O)c2ccccc2)N1 ?
result: Yes

query: Answer briefly: the call reported for COc1cccc(OCC(=O)NNC(=O)c2cnccn2)c1 in this assay.
result: Yes

query: Outcome? COc1ccc(CC(=O)NNC(=O)c2cnccn2)cc1
result: Yes

====

Target: Zinc finger protein mex-5 (Caenorhabditis elegans) (UniProt Q9XUB2)
Sequence (Q9XUB2 whole entry, looked up): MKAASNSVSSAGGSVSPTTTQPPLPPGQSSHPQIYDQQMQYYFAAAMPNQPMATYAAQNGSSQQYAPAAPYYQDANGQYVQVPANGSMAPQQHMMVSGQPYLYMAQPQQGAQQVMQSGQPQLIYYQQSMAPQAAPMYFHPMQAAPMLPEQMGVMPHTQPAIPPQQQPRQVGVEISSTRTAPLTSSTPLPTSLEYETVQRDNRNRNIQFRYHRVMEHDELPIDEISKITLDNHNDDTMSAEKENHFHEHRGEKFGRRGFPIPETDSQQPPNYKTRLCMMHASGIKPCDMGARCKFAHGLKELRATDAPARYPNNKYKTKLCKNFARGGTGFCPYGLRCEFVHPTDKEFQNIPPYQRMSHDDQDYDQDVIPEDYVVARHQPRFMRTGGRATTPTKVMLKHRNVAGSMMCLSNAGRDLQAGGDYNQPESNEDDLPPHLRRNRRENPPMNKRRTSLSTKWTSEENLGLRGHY
Assay: MEX-5 RNA-binding inhibition confirmation – biochemical, C. elegans, fluorescence polarization, dose retest (AID 449745)
Conditions: Mex-5 / TCR-2 RNA binding
Inconclusive results are not listed. Calls of active or inactive are those of the source. No rule for the calls is given here.
Pick one and only one: active, inactive

Here's what some known entries look like.
CCN(CC)C(=O)Cn1c(=O)c2ccccc2n2c(=S)sc(-c3cccc(C)c3)c12 | active
COc1ccc(N(C(=O)CCl)C(C)(C(=O)Nc2c(C)cccc2C)c2ccccn2)cc1 (stereo not given) | inactive
N#Cc1c(C#N)c(O)c2ccccc2c1O | active
CN1/C(=C\C=C2C(=O)NC(=O)NC2=O)C(C)(C)c2ccccc21 | inactive
O=C(Nc1ccc(S(=O)(=O)Nc2nccs2)cc1)c1ccc(N2C(=O)c3ccccc3C2=O)cc1 | inactive

We now examine a further compound.
query: Short answer needed: outcome of this test for CC1=NN2C(=N)/C(=C\c3ccc(SCc4ccccc4)o3)C(=O)N=C2S1 ?
result: active

====

Target: Zinc finger protein mex-5 (Caenorhabditis elegans) (UniProt Q9XUB2)
Assay: MEX-5 RNA-binding inhibition confirmation – biochemical, C. elegans, fluorescence polarization, dose retest (AID 449745)
Details: Mex-5 / TCR-2 RNA binding
Inconclusive results are not listed. Calls of active or inactive are those of the source. No rule for the calls is given here.
Bench note: report the call from 1 for active, -1 for inactive

query: Tell me the recorded outcome of this test for Nc1nnc(CC(=O)N/N=C/c2cc([N+](=O)[O-])cc(Br)c2O)s1 .
result: 1

query: Per the records of this test, what outcome belongs to C[n+]1c2ccccc2nc2ccc(NCCO)cc21 ?
result: 1

query: State the result this test recorded for COC(=O)/C=C1/S/C(=N/NC(=O)c2ccc(Cl)cc2Cl)NC1=O .
result: 1

query: Can you look up the reported call for O=C(NNC(=O)c1ccccc1O)c1ccc(S(=O)(=O)Nc2ccccc2)cc1 for me?
result: 1

query: What outcome does the record of this test show for O=C(N/N=C/c1cc2c(cc1Cl)OCO2)c1ccccn1 ?
result: -1

query: Status in this test for COc1cccc(NC(=O)CSc2nc3ccccc3nc2N2CCOCC2)c1 ?
result: -1

query: Call for entry Cc1ccc(C(=O)O)cc1N1C(=O)c2cccc3c([N+](=O)[O-])ccc(c23)C1=O :
result: 1

query: What outcome does the record of this test show for CC[n+]1c(/C=C/C=C/c2ccc(N(C)C)cc2)sc2ccccc21 ?
result: 1

====

Molecular target: Zinc finger protein mex-5 (Caenorhabditis elegans)
Experiment: MEX-5 RNA-binding inhibition confirmation – biochemical, C. elegans, fluorescence polarization, dose retest (AID 449745)
Conditions: Mex-5 / TCR-2 RNA binding
Records with an inconclusive call do not appear. Activity calls are given as the source filed them. How the calls were made is not given here.
Pick one and only one: yes (active), no (inactive)

query: Answer briefly: the call reported for CC(C)CN1CCN(Cc2cccc3ncccc23)CC1CCO (stereo not drawn) in this assay.
result: no

query: For O=C1c2ccccc2C(=O)N1/N=C/c1ccc(O)c(O)c1O , which call appears in the assay record?
result: yes

query: Would you mind telling me which call this test gave O=c1cc[nH]c2c1ccc1c(=O)cc[nH]c12 ?
result: yes

query: # outcome recorded in this test, key = CC(C)(C)C1CC=C2C(C#N)=C(N)C(C#N)(C#N)C(c3cccs3)C2C1 (stereo not drawn)
result: no

query: Kindly provide the recorded test outcome for the following compound: O=C(O)/C=C/C(=O)NNc1ncnc2ccccc12
result: yes

====

Measured AC50 by item
Biological target: Zinc finger protein mex-5 (Caenorhabditis elegans)
Experiment: MEX-5 RNA-binding inhibition confirmation – biochemical, C. elegans, fluorescence polarization, dose retest (AID 449745);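 also: potency is for blocking Mex-5 binding to labeled TCR2 RNA like unlabeled competitor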
Conditions: Mex-5 / TCR-2 RNA binding
Inconclusive results are not listed. Activity calls are given as the source filed them. The rule behind the calls is not given here.

COc1ccc(N=C2S/C(=C\c3cc(C)n(C)c3C)C(=O)N2C)cc1 | > 38 µM (inactive)
Oc1ccc(N=Nc2n[nH]c(-c3ccccc3)n2)cc1 | 4.21 µM
COC/C=C/C1=CC2=CC(=O)C(C)(OC(=O)c3cnc4ccccc4n3)C(=O)C2=CO1 (centres undefined) | 17.4 µM
COc1ccc(N2C(=O)NC(=O)/C(=C\c3ccc([N+](=O)[O-])s3)C2=O)cc1 | 18.7 µM
Cc1cc(C)cc(NC(=O)N(C)Cc2ccccc2)c1 | > 38 µM (inactive)
CCn1c(SCc2nc3sc(C(=O)O)c(C)c3c(=O)[nH]2)nc2ccccc21 | 13 µM
CC1=Nc2cccc3cccc(c23)N1C | > 38 µM (inactive)
CCOC(=O)c1ccc(NC(=O)C(=O)NCc2ccc(/C=C(/C#N)C(=O)NCCOC)o2)cc1 | > 38 µM (inactive)

# evaluate next
query: Requested read-out: AC50. Entry: COCCCNC(=O)c1ccc2c3c(onc13)-c1ccccc1C2=O
result: < 0.3 µM

====

Target: Zinc finger protein mex-5 (Caenorhabditis elegans)
Experiment: MEX-5 RNA-binding inhibition confirmation – biochemical, C. elegans, fluorescence polarization, dose retest (AID 449745);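 also: potency is for blocking Mex-5 binding to labeled TCR2 RNA like unlabeled competitor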
Conditions: Mex-5 / TCR-2 RNA binding
Inconclusive results are not listed. Calls of active or inactive are those of the source. The rule behind the calls is not given here.
Use one of these outcomes when replying: active, inactive

Solved cases below.
Cc1cc2ccccc2n1CCNC(=O)c1ccc(Br)o1 | inactive
N=c1c(S(=O)(=O)c2ccc(Cl)cc2)cc2c(=O)n3ccccc3nc2n1CC1CCCO1 (stereo not drawn) | inactive
CCOC(=O)c1c(/N=C/c2ccc(OC)cc2O)sc2c1CCN(C)C2 | inactive
O=C(CSc1ncn[nH]1)Nc1c(Br)cc([N+](=O)[O-])cc1Br | active
Oc1ccc(/C=N/n2c(-c3ccccc3)n[nH]c2=S)cc1Br | active

query: Please state the recorded outcome for this molecule: Nc1nnnn1/N=C/c1cc(Cl)ccc1O
result: active

query: Dear colleague, could you share the recorded outcome for Cc1cc2c(n1-c1ccc(C(=O)O)cc1)CCCCC2 when you have a moment?
result: active

query: Please state the recorded outcome for this molecule: O=c1[nH]c(/C=C/c2cccc3ccccc23)nc2ccccc12
result: inactive

query: Hi team, can someone confirm the assay call for CCOC(=O)C(C(=O)OCC)c1cc(Br)c2noc3c2c1C(=O)c1ccccc1-3 ?
result: active

query: Per the records of this test, what outcome belongs to Cc1cccc2cc3c(N)c(C(=O)N4CCCc5ccccc54)sc3nc12 ?
result: active

query: I'd appreciate the recorded outcome for CCOC(=O)/C(C#N)=C/c1ccc(-c2ccsc2C(=O)OC)o1 from this test.
result: inactive

query: Hi team, can someone confirm the assay call for O=C(N/N=C/c1c(O)n(Cc2ccccc2)c(=O)[nH]c1=O)c1ccccc1O ?
result: active

query: For O=C(O)CCN1C(=O)/C(=C\c2ccc(-c3nc4ccccc4s3)o2)SC1=S , which call appears in the assay record?
result: active

====

Biological target: Zinc finger protein mex-5 (Caenorhabditis elegans)
Experiment: MEX-5 RNA-binding inhibition confirmation – biochemical, C. elegans, fluorescence polarization, dose retest (AID 449745);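 also: potency is for blocking Mex-5 binding to labeled TCR2 RNA like unlabeled competitor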
Conditions: Mex-5 / TCR-2 RNA binding
Results filed as inconclusive are left out. The source made the active and inactive calls. How the calls were made is not given here.
Respond only with the outcome that fits, drawn from True = active, False = inactive

Example cases with answers are listed next.
COc1ccc2ccccc2c1CNCc1ccccn1 | False
O=C(O)c1cc(-c2ccc(/C=c3\sc4nc5ccc(Br)cc5n4c3=O)o2)ccc1Cl | True
CCCCOc1ccc2c(c1)/C(=C(\C(Cl)=C(Cl)Cl)[N+](=O)[O-])N2 | True
C#CCN1C(=O)S/C(=C\c2ccc(-c3ccc(Cl)c(C(=O)O)c3)o2)C1=O | False
Cc1cc(C)c2c3c(sc2n1)C(c1ccccc1)C(C#N)=C(N)O3 (stereo not drawn) | False

query: Hello, I am checking results. What call was entered for Cc1cc(/C=C2\C(=O)NC(=O)N(Cc3ccccc3)C2=O)c(C)n1-c1ccc(Cl)c(C(=O)O)c1 ?
result: True

query: Please share the test call associated with O=c1[nH][nH]c2cc(=O)n(-c3cccc(C(F)(F)F)c3)nc12 .
result: True

query: What did the test return for CCN1C/C(=C/c2ccc(OC)c(O)c2)C(=O)/C(=C/c2ccc(OC)c(O)c2)C1 ?
result: False

query: Status in this test for CCCN1CCN(S(=O)(=O)c2cn(C)nc2C)CC1 ?
result: True

query: Hi, sorry to bother you, what did the test record for Cc1cc(C)cc(N2C(=O)NC(=O)/C(=C/c3cccn3-c3ccc(Cl)cc3)C2=O)c1 ?
result: False

query: Answer briefly: the call reported for COc1cccc(CN2C(=O)c3cccc(N)c3C2=O)c1 in this assay.
result: True

query: State the result this test recorded for CC(=O)Nc1ccc2cc3ccc(NC(C)=O)cc3nc2c1 .
result: True

query: Per the assay record, what outcome was assigned to O=c1ccc2cc3c([nH]c4ccc(Br)cc43)oc-2c1O ?
result: True

query: Would you mind telling me which call this test gave Cc1[nH][nH]c(=O)c1C(c1ccc(O)c([N+](=O)[O-])c1)c1c(C)[nH][nH]c1=O ?
result: True

query: For Cc1ccc(S(=O)(=O)N/N=C/c2ccc(O)c(O)c2)cc1[N+](=O)[O-] , which call appears in the assay record?
result: True

query: Name the outcome recorded for CCc1cc[n+](-c2nc3ccccc3nc2[N-]S(=O)(=O)c2ccc(Br)s2)cc1 in the assay.
result: True
